Assay type: in vivo, human
Settings: human, plasma, po, 50 mg

record.smiles	readout.unit	AUC(0-t)
COC(=O)c1ccc2c(c1)NC(=O)/C2=C(\Nc1ccc(N(C)C(=O)CN2CCN(C)CC2)cc1)c1ccccc1	ng·h/mL	35.7

====

Assay type: in vivo, human
Settings: human, plasma, oral

molecule	readout.unit	Tmax
COC(=O)c1ccc2c(c1)NC(=O)/C2=C(\Nc1ccc(N(C)C(=O)CN2CCN(C)CC2)cc1)c1ccccc1 [Nintedanib]	h	4

====

Format: in vivo, human
Settings: human, plasma, oral

compound	readout.unit	half-life
COC(=O)c1ccc2c(c1)NC(=O)/C2=C(\Nc1ccc(N(C)C(=O)CN2CCN(C)CC2)cc1)c1ccccc1 [Nintedanib]	h	15.6
